Test system: OVCAR-4 ovarian
Experiment: NCI tumour cell line growth inhibition, 48 h
metric_name: TGI

Documented TGI of Nc1ncnc2c1ncn2C1C=CC(CP(=O)(O)O)C1 (stereo unspecified) : > 100 µM

Documented TGI of ClC1CCC2OOC1O2 (stereo unspecified) : > 100 µM

Documented TGI of Nc1ncnc2c1nc(-c1ccccc1)n2C1OC(CO)C(O)C1O (stereo unspecified) : > 100 µM

Documented TGI of `COc1ccc(/C=C2\CN(Cc3cn(CCCNc4ccnc5cc(Cl)ccc45)nn3)C/C(=C\c3ccc(OC)c(OC)c3)C2=O)cc1OC` : 18.1 µM

Documented TGI of CC(C)NCC(O)COC(=O)c1cccs1 (stereo unspecified) : > 100 µM

Documented TGI of Nc1nc(N)c2c(n1)NC(c1ccccc1)CC(/C=C/c1ccc(Cl)cc1)=N2 (stereo unspecified) : 20.5 µM

Documented TGI of `COc1ccc(/C=C(\C#N)c2nc(N)nc(N3N=C(C)CC3(C)C)n2)c(O)c1` : 30.4 µM

Documented TGI of `O=c1[nH]c(-c2cccc(F)c2)nc2ccccc12` : > 65.9 µM
